As shown below, each of these compounds has a reported cell viability value.
# System: SEM cells
# procedure_text: cell viability relative to DMSO control; higher = less cytotoxic
# setup_conditions: RPMI 5 mM glucose + 10% FBS; 48 h; 0.0211 µM
reported_metric: cell viability (%)

- compound: "COc1cc(NC(=O)c2ccc(-c3ccc(Cl)cc3)o2)cc(OC)c1"
  assay_system: "SEM cells"
  reported_metric: "cell viability"
  numeric_value: 104
- compound: "NC1CCC(Nc2nc(Nc3ccc(C(=O)N4CCCCC4)cc3)c3ncn(-c4cccc(F)c4)c3n2)CC1 (stereo unspecified)"
  assay_system: "SEM cells"
  reported_metric: "cell viability"
  numeric_value: 112
- compound: "CCCc1nc2c(C)cc(-c3nc4ccccc4n3C)cc2n1Cc1ccc(-c2ccccc2C(=O)O)cc1"
  assay_system: "SEM cells"
  reported_metric: "cell viability"
  numeric_value: 133
- compound: "OC(CCN1CCCCC1)(C2CC\\3CC2\\C=C3)C4=CC=CC=C4 (stereo unspecified)"
  assay_system: "SEM cells"
  reported_metric: "cell viability"
  numeric_value: 91
- compound: "CN1\\N=N/C2=C(N=C[N]2C1=O)C(N)=O"
  assay_system: "SEM cells"
  reported_metric: "cell viability"
  numeric_value: 86.2
- compound: "CNC(=O)c1ccc(N2C(=S)N(c3ccc(C#N)c(C(F)(F)F)c3)C(=O)C2(C)C)cc1F"
  assay_system: "SEM cells"
  reported_metric: "cell viability"
  numeric_value: 74.8
- compound: "CC1(C)Cc2c(sc(NC(=S)NC(=O)c3ccccc3)c2C(=O)O)CO1"
  assay_system: "SEM cells"
  reported_metric: "cell viability"
  numeric_value: 93.1
- compound: "O=C(Nc1ccc([N+](=O)[O-])cc1Cl)c1cc(Cl)ccc1O"
  assay_system: "SEM cells"
  reported_metric: "cell viability"
  numeric_value: 101
- compound: "COc1ccc(C(=O)CC(=O)c2ccc(C(C)(C)C)cc2)cc1"
  assay_system: "SEM cells"
  reported_metric: "cell viability"
  numeric_value: 93
- compound: "CN1CCN(Cc2ccc(NC(=O)Nc3ccc(Oc4cc(NC(=O)C5CC5)ncn4)cc3)cc2C(F)(F)F)CC1"
  assay_system: "SEM cells"
  reported_metric: "cell viability"
  numeric_value: 49.1
- compound: "C[C@]12CC[C@@H]3c4ccc(O)cc4CC[C@H]3[C@@H]1CC[C@@H]2O"
  assay_system: "SEM cells"
  reported_metric: "cell viability"
  numeric_value: 142
- compound: "CCCCOc1ccc(CC(=O)NO)cc1"
  assay_system: "SEM cells"
  reported_metric: "cell viability"
  numeric_value: 116
- compound: "C=CC(=O)Nc1cccc(Oc2nc(Nc3ccc(N4CCN(C)CC4)cc3OC)ncc2Cl)c1"
  assay_system: "SEM cells"
  reported_metric: "cell viability"
  numeric_value: 88.2
- compound: "Cn1c(=O)c2[nH]cnc2n(C)c1=O"
  assay_system: "SEM cells"
  reported_metric: "cell viability"
  numeric_value: 98.1
- compound: "COCCCOc1ccnc(C[S+]([O-])c2nc3ccccc3[nH]2)c1C (stereo unspecified)"
  assay_system: "SEM cells"
  reported_metric: "cell viability"
  numeric_value: 82.6
- compound: "CC(=O)C1=C(O)C2(C)C(=CC1=O)Oc1c(C(C)=O)c(O)c(C)c(O)c12 (stereo unspecified)"
  assay_system: "SEM cells"
  reported_metric: "cell viability"
  numeric_value: 129
